List of amyloid nucleation score values.
method-notes: amyloid nucleation score (Sup35N fusion, yeast selection) (log enrichment); library NNK2; higher = more nucleation; inactive = no reads after selection;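 also: zero at mode of non-aggregating sequences after 7 days selection at 30°C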
# output: bare number, no unit

INSERT INTO results (entry_sequence, parameter, experimental_value) VALUES
  ('KAWFLESSKYSYRSWFR', 'amyloid nucleation score', -0.641),
  ('LNHPTGCEYRWEARPNLCEK', 'amyloid nucleation score', -0.553),
  ('IQEVRVACCWLIFRGCIRTA', 'amyloid nucleation score', 4.1),
  ('AYYFVLNVSTNLGNLGRTIL', 'amyloid nucleation score', 4.35);

Find the recorded amyloid nucleation score belonging to CLNKIETPSTVKFRECHCCD and report it. 4.52

Find the recorded amyloid nucleation score belonging to KYNLRDSNCSTCMFGSSRVS and report it. 4.25

Find the recorded amyloid nucleation score belonging to SCRSIRYEWRHDTVGRRSTR and report it. 3.2

Find the recorded amyloid nucleation score belonging to GMYLVENLLFRAQCRSTHWQ and report it. 1.25

Find the recorded amyloid nucleation score belonging to LSFRYVFIWIEVFPILGNMR and report it. -1.77

###

method-notes: amyloid nucleation score (Sup35N fusion, yeast selection) (log enrichment); library NNK1; higher = more nucleation; inactive = no reads after selection
parameter: amyloid nucleation score
# output: bare number, no unit

Some entries whose results are on file:
INSERT INTO measurements (substance, experimental_value) VALUES
  ('ATLVTV', 0.759),
  ('RWIFSSWLLDGILGERCQTV', -0.484),
  ('THNWNNSYSWSPPDALVSCK', 0.263),
  ('RKCLESTTRSFLAVRS', 3.3),
  ('HWCCIKSVGCIWIRKSVTRC', 0.204),
  ('GVCVKGKRWDAEGVLRNAYT', 1.41);

Find the recorded amyloid nucleation score belonging to TVVESRTPILVYFMGCRVTY and report it. 3.31

Find the recorded amyloid nucleation score belonging to SYWCSHIIIERMLVLVHRIV and report it. 1.19

Find the recorded amyloid nucleation score belonging to DYPRSIILCWHF and report it. -1.39

Find the recorded amyloid nucleation score belonging to KVLITCCGPKWSCSLAPDEL and report it. 0.668

Find the recorded amyloid nucleation score belonging to GSCFLCKI and report it. 0.686

Find the recorded amyloid nucleation score belonging to VLVLNLSLPKSLSNPSMRFG and report it. 8.03

Find the recorded amyloid nucleation score belonging to SVILIGRRDDHASSIRVIGS and report it. -0.752

Find the recorded amyloid nucleation score belonging to DMRYSRSCYTGCTDYYTCLG and report it. -0.546

Find the recorded amyloid nucleation score belonging to HDFYEDIVMEYVL and report it. 1.55

###

method-notes: amyloid nucleation score (Sup35N fusion, yeast selection) (log enrichment); library NNK1; higher = more nucleation; inactive = no reads after selection
List of amyloid nucleation score values.
# output: bare number, no unit

Some entries whose results are on file:
INSERT INTO measurements (substance, parameter, experimental_value) VALUES
  ('LQKFMLV', 'amyloid nucleation score', 0.638),
  ('SLEWLESCFSDAHIHTAH', 'amyloid nucleation score', -0.733);

Find the recorded amyloid nucleation score belonging to SSSVYVVVEPDMNGLMGMRK and report it. 0.08

Find the recorded amyloid nucleation score belonging to NFLPRTCMLVARFRRKTYLL and report it. 0.879

Find the recorded amyloid nucleation score belonging to QRKYNDLFWLTSPFSQSMWM and report it. 0.997

Find the recorded amyloid nucleation score belonging to GKCVTWQASCLQCSKSNWYQ and report it. 0.995

Find the recorded amyloid nucleation score belonging to LSSPLLS and report it. 0.66

Find the recorded amyloid nucleation score belonging to VHWRASCNMQLRADQRICIL and report it. -0.84

###

method-notes: amyloid nucleation score (Sup35N fusion, yeast selection) (log enrichment); library NNK1; higher = more nucleation; inactive = no reads after selection
List of amyloid nucleation score values.
# output: bare number, no unit

Find the recorded amyloid nucleation score belonging to RSLPNPL and report it. -0.29

Find the recorded amyloid nucleation score belonging to FYGEGNFRGKTYVFTVPVVK and report it. -1.21

Find the recorded amyloid nucleation score belonging to RLCPSCLVKWMTLWFVWIVR and report it. 0.769

###

method-notes: amyloid nucleation score (Sup35N fusion, yeast selection) (log enrichment); library NNK2; higher = more nucleation; inactive = no reads after selection
parameter: amyloid nucleation score
# output: bare number, no unit

Some entries whose results are on file:
INSERT INTO measurements (substance, parameter, experimental_value) VALUES
  ('HYCVIEKRSHIG', 'amyloid nucleation score', -0.739),
  ('RDPSTELMISRLARTESCGT', 'amyloid nucleation score', 4.94),
  ('VVVNTYYSGIFMQVFLFL', 'amyloid nucleation score', 6.76),
  ('ELDGYLVLFFTGLNP', 'amyloid nucleation score', -0.418),
  ('WFSVVILLNSTMEYYQYLV', 'amyloid nucleation score', -0.128);

Attention now turns to another entry.
Find the recorded amyloid nucleation score belonging to LKSSWPFDVKKAYKCYVKFA and report it. 0.006

###

method-notes: amyloid nucleation score (Sup35N fusion, yeast selection) (log enrichment); library NNK1; higher = more nucleation; inactive = no reads after selection
Decide using amyloid nucleation score: a value greater than or equal to -0.06 is 1, a smaller one is -1.

Reference set (6 entries):
INSERT INTO measurements (substance, assigned_category) VALUES
  ('SMMSGCGTGVAPKAWSGDGW', 1),
  ('SAPFMNGLCTLSRVREISAH', 1),
  ('FLARNFCIC', 1),
  ('DNNLGLSWLSILAGFGH', -1),
  ('VTLSIYVNNSDGISR', 1),
  ('GHFRSASRKYALTV', -1);

Then this substance:
Reported amyloid nucleation score reaches at least -0.06 for RVGSFMVNPSSCMSYAFWLR ? 1

###

method-notes: amyloid nucleation score (Sup35N fusion, yeast selection) (log enrichment); library NNK3; higher = more nucleation; inactive = no reads after selection
parameter: amyloid nucleation score

Some entries whose results are on file:
INSERT INTO measurements (substance, experimental_value) VALUES
  ('LLCLLQEIGFVAITGWI', 'inactive'),
  ('ISSVQISRAFPQHRTRRN', 'inactive'),
  ('CREVINDSFPNATWLHSGLV', 'inactive'),
  ('LSRRNFIRNNVVQ', 'inactive'),
  ('NFSPHTFVSNSM', 'inactive'),
  ('RNSSYYLMASVDCVRFH', 'inactive'),
  ('VLCPFRLFMSNTYLTFAMSC', 'inactive'),
  ('SLDIKPSMRCGRRCVRGRST', 'inactive');

Find the recorded amyloid nucleation score belonging to IVVLWV and report it. -0.341

Find the recorded amyloid nucleation score belonging to IVCCQYQNYLNGSPLNIVLI and report it. inactive

Find the recorded amyloid nucleation score belonging to TCAIPHLKCSFLLYFGQYGC and report it. inactive

Find the recorded amyloid nucleation score belonging to PALMDLGYRYVSRNFDL and report it. inactive

Find the recorded amyloid nucleation score belonging to CLCKLEWHNTYMGYKR and report it. 2.63

Find the recorded amyloid nucleation score belonging to LVMACCNIMKSATMIILYTM and report it. 1.26

Find the recorded amyloid nucleation score belonging to DSLIVCTVPHGLDVVSTRRV and report it. inactive

Find the recorded amyloid nucleation score belonging to KASLPNR and report it. inactive

Find the recorded amyloid nucleation score belonging to YNVSINYVGENDGWEACFLS and report it. 0.666

###

List of amyloid nucleation score values.
method-notes: amyloid nucleation score (Sup35N fusion, yeast selection) (log enrichment); library NNK2; higher = more nucleation; inactive = no reads after selection
# output: bare number, no unit

INSERT INTO measurements (entry_sequence, parameter, experimental_value) VALUES
  ('NHWWIHYDDLLLAHDFLHLW', 'amyloid nucleation score', 0.055),
  ('NFYIATIRTAFLSVMAVRN', 'amyloid nucleation score', 3.29),
  ('LSKINVFWKSSTALQCLAPE', 'amyloid nucleation score', -0.322),
  ('LRGYCLRWRHWTVSILEFGV', 'amyloid nucleation score', -1.02),
  ('VLYRLKVKAQWSLS', 'amyloid nucleation score', 0.878),
  ('DCSDPCGSAPKDLSTKTVRC', 'amyloid nucleation score', 1.61),
  ('WSVVLWDVEGYWASASSQLW', 'amyloid nucleation score', 0.907),
  ('TFRPFQVTSHVSLRDMMGIS', 'amyloid nucleation score', 0.132);

Find the recorded amyloid nucleation score belonging to YSSADGPDSDMCRSVLKLVI and report it. 0.287

Find the recorded amyloid nucleation score belonging to YTEGAWVRVSDYRE and report it. -0.565

Find the recorded amyloid nucleation score belonging to FNLAPLMVIMPGIMGWGLLG and report it. 1.67

Find the recorded amyloid nucleation score belonging to PLNCLPGNCSAQPRFGAASG and report it. 0.505

Find the recorded amyloid nucleation score belonging to WLVFQFYVRGRREMVS and report it. 1.4

Find the recorded amyloid nucleation score belonging to SVWPGRSAEASRFGFGAGAD and report it. 0.528
